Numbers sourced from paper PMC9082315.

molecular target: monomeric SARS-CoV-2 RBD with Flag peptide and 8xHis-tag (RBD-FH) (SARS-CoV-2, WA1 (Wuhan-like), UniProt P0DTC2); test: SPR; details: both partners purified
PARAMETER_MEASURED: Kd (nM)
# value in nM; strip the unit string

Which Kd value belongs to 1.26 Nb (VHH) VHH: QVQLVESGGGLVQAGGSLRLSCAATGYTWSSVCMGWFRQAPGKEREGVAGIPSGRNRPYYADSVKGRFTISQDNAKNAVFLLMNSLKPEDTAIYYCAPCSAPHDPEYNYWGQGTQVTVSS ? 0.26

Which Kd value belongs to 1.29 Nb (VHH) VHH: QVQLVESGGGSVQAGGSLRLSCAASGYTINTDAVAWFRQAPGKGDERVAVIYTGSGNTNYADSVKGRFTISQDNAKNTVYLQMNSLKPEDTALYYCASGYYGASGYDFNNWGQGTQVTVSS ? 12.9

Which Kd value belongs to 2.20 Nb (VHH) VHH: QVQLVESGGGSVQAGGSLRLSCAASGYTYNNYYMGWFRQAPGKEREGVAAINSDGLDTYVADSVKGRFTISRDNAKDTVHLQMNSLKPEDTAIYSCATGRTVYYSGYDFRLSVDDYWGQGTQVTVSS ? 0.77

Which Kd value belongs to 1.10 Nb (VHH) VHH: QVQLVESGGGSVQAGGSLRLSCAASGYTYSTCRKGWYRQAPGKERELVASITADGATYYLDSVKGRLTISQDNAKNTVYLQMNSLKPEDTAVYYCAASVKDFTCTFNSWGQGTQVTVSS ? 3.96
